Could you please report measured GI50 for the items listed next?
# Test system: U-251
# Experimental Protocol: NCI tumour cell line growth inhibition, 48 h
The source made the active and inactive calls. Rule as the data show it: active = GI50 up to about 1.1 µM and inactive = higher.

Some entries whose results are on file:
- Molecule: "OC1(c2ccccc2)C2CC=CC2C1(c1ccccc1)c1ccccc1 (centres undefined)"
  GI50: "32.5 µM (inactive)"
- Molecule: "Nc1ncc(C=O)c(NCC2(CO)CCC2)n1"
  GI50: "35.6 µM (inactive)"
- Molecule: "NCCSc1cc(O)c2c(c1N)C(=O)c1ccccc1C2=O"
  GI50: "58.7 µM (inactive)"

Kindly note the recorded GI50 for CCOC(=O)N(C)C1(c2ccccc2)CCN(CCCC(=O)c2ccc(F)cc2)CC1 , which is 61.4 µM (inactive)

---

# Tested on: M19-MEL
# Experimental Protocol: NCI tumour cell line growth inhibition, 48 h
Calls of active or inactive are those of the source. Cut-off read from the data, not from the text of the source: active = GI50 up to about 1.1 µM and inactive = higher.
Quantity: GI50

- Compound: "CC1=CC2CC(C)C1(C)CCc1ccoc12 (centres undefined)"
  Quantity: "GI50"
  Observed Measurement: "> 100 µM (inactive)"

For each of the compounds below, state GI50.
1. FC(F)(F)C1(Br)C(c2ccccc2)=C1c1ccccc1
2. CCC1CN2CCc3cc(OC)c(OC)cc3C2CC1CC1c2cc(OC)c(OC)cc2CCN1C(=O)C(Cc1c[nH]c2ccccc12)NC(=O)OC(C)(C)C (centres undefined)

Solution:
15.6 µM (inactive)
1.69 µM (inactive)

Record for Cc1cc2nc(O)c(CCC(=O)O)nc2cc1C under target or system M19-MEL: GI50 reported as > 100 µM (inactive)

---

# Tested on: SF-295
# Experimental Protocol: NCI tumour cell line growth inhibition, 48 h
Active and inactive are the calls of the source. No stated cut-off is given here; in the data, active = GI50 up to about 1.1 µM and inactive = higher.
Quantity: GI50

Some entries whose results are on file:
- Compound: "FC(F)(F)C1(Br)C(c2ccccc2)=C1c1ccccc1"
  GI50: "13 µM (inactive)"
- Compound: "COC(=O)/C(C#N)=C1\\CCC(OC)N1C (stereo not given)"
  GI50: "> 100 µM (inactive)"
- Compound: "Cc1ccc(S(=O)(=O)NC(CO)C(=O)O)cc1 (stereo not given)"
  GI50: "> 100 µM (inactive)"
- Compound: "Cc1ccc(C(=N)Nc2ccccc2)cc1"
  GI50: "> 100 µM (inactive)"

For each of the compounds below, state GI50.
1. O=C1C(c2ccccc2)=[N+]([O-])c2ccc(Cl)cc21
2. COC(=O)C1=C(C[S+]([O-])c2ccccc2[N+](=O)[O-])ON(C)C1c1ccccc1 (stereo not given)
3. O=C1c2cccc([N+](=O)[O-])c2C(=O)N1Cc1ccccc1
4. Cc1ccc([S+]([O-])c2sccc2C=O)cc1 (stereo not given)
5. Cc1ccc(S(=O)(=O)N2C[C@@H]3CC[C@]4(CO[Si](C)(C)C(C)(C)C)N[C@@H](c5ccccc5)[C@H]2[C@H]34)cc1

Solution:
1: 34.1 µM (inactive); 2: 65.8 µM (inactive); 3: > 100 µM (inactive); 4: 23.7 µM (inactive); 5: 24.9 µM (inactive)

---

# Test system: ACHN
# Experimental Protocol: NCI tumour cell line growth inhibition, 48 h
Active and inactive are the calls of the source. No stated cut-off is given here; in the data, active = GI50 up to about 1.1 µM and inactive = higher.
Could you please report measured GI50 for the items listed next?

- Compound: "O=C(c1cscc1CCc1ccccc1)c1cscc1CCc1ccccc1"
  GI50: "> 100 µM (inactive)"
- Compound: "COC(=O)Cc1c(-c2[nH]c3ccccc3c2CC(=O)OC)[nH]c2ccccc12"
  GI50: "> 58.9 µM (inactive)"

Kindly note the recorded GI50 for Cc1ccc(C(=N)Nc2ccccc2)cc1 , which is > 100 µM (inactive)

---

# Tested on: SNB-19
# Experimental Protocol: NCI tumour cell line growth inhibition, 48 h
The source made the active and inactive calls. No stated cut-off is given here; in the data, active = GI50 up to about 1.1 µM and inactive = higher.
Could you please report measured GI50 for the items listed next?

Some entries whose results are on file:
- Molecule: "CN(C)C(=O)N(CCCl)N=O"
  Tested System: "SNB-19"
  Observed Measurement: "> 100 µM (inactive)"
- Molecule: "O=c1c2cc(Br)ccc2oc2nc3n(c(=O)c12)CCCS3"
  Tested System: "SNB-19"
  Observed Measurement: "> 100 µM (inactive)"
- Molecule: "COc1cc(S(=O)(=O)Nc2ccc(-c3csc(/N=C\\C=C\\c4ccccc4)n3)cc2)ccc1Cl"
  Tested System: "SNB-19"
  Observed Measurement: "84.3 µM (inactive)"

For each of the molecules below, state GI50.
1. O=C(CNC(=O)OCc1ccccc1)NCCCCC(NC(=O)OCc1ccccc1)C(=O)NC(CCCCNC(=O)CNC(=O)OCc1ccccc1)C(=O)OCc1ccccc1 (stereo unspecified)
2. S=c1nc(N2CCCCC2)c2cn[nH]c2[nH]1
3. COC1=C(OC)C(=O)C(Cc2c(Cl)nc3sccn23)=C(C)C1=O

Solution:
1: > 62.5 µM (inactive); 2: > 100 µM (inactive); 3: 13.5 µM (inactive)

---

# System: KM-20L2
# Experimental Protocol: NCI tumour cell line growth inhibition, 48 h
Active and inactive are the calls of the source. No stated cut-off is given here; in the data, active = GI50 up to about 1.1 µM and inactive = higher.
Could you please report measured GI50 for the items listed next?

- Compound: "COC(=O)C1=Cc2cc(OC)c(OC)c(OC)c2[C@H](c2cc(OC)c(OC)c(OC)c2)C1C(=O)OC (stereo not given in full)"
  GI50: "> 100 µM (inactive)"

For each of the compounds below, state GI50.
1. O=C(NCO)NCOCn1c(=O)n(CO)c(=O)n(CO)c1=O
2. COC(=O)/C(C=O)=C/Sc1ccccc1
3. CN1N=C(N)c2cn(C3OC(COP(=O)(O)O)C(O)C3O)c3ncnc1c23 (stereo not given)
4. Cc1ccccc1/C=C/c1csnn1

Solution:
38.6 µM (inactive)
29.7 µM (inactive)
58.5 µM (inactive)
> 100 µM (inactive)

---

Could you please report measured GI50 for the items listed next?
# Test system: NCI-H460
# Experimental Protocol: NCI tumour cell line growth inhibition, 48 h
Calls of active or inactive are those of the source. Cut-off read from the data, not from the text of the source: active = GI50 up to about 1.1 µM and inactive = higher.

- Molecule: "CN(C)CC1CC/C(=C\\c2ccc(Cl)cc2)C1=O (stereo unspecified)"
  Tested System: "NCI-H460"
  GI50: "17.4 µM (inactive)"

For each of the molecules below, state GI50.
1. Cc1cc(C)c2c(=O)cc(-c3ccccc3)[nH]c2c1
2. C/C(=N\Nc1nc2ccccc2[nH]1)c1ccc2ccccc2n1
3. O=C1NC(=S)NC(=O)C1=Cc1ccc2ccccc2n1
4. CCN(CC)CCOC(NC(C)=O)(c1ccccc1)c1ccccc1
5. BrC12C3C4C5C(C(C43)C13OCCO3)C52 (stereo unspecified)

Solution:
1.92 µM (inactive)
2.25 µM (inactive)
> 100 µM (inactive)
> 100 µM (inactive)
> 100 µM (inactive)

---

# Tested on: U-251
# Experimental Protocol: NCI tumour cell line growth inhibition, 48 h
Calls of active or inactive are those of the source. Cut-off read from the data, not from the text of the source: active = GI50 up to about 1.1 µM and inactive = higher.
API: response.call in active, inactive

Past entries and their recorded results:
- Compound: "CC(C)c1ccccc1NC(=O)CCC(=O)NN"
  Category: "inactive"
- Compound: "O=C1c2cc([N+](=O)[O-])cc3cc([N+](=O)[O-])cc(c23)C(=O)N1CCCNCCNCCCN1C(=O)c2cc([N+](=O)[O-])cc3cc([N+](=O)[O-])cc(c23)C1=O"
  Category: "active"
- Compound: "COc1ccc2c(c1)C(=O)OCCC2"
  Category: "inactive"
- Compound: "NNC(=S)N/N=C(\\c1nc2ccc(Cl)cc2nc1O)C(O)c1cccc([N+](=O)[O-])c1 (configuration not stated)"
  Category: "inactive"
- Compound: "CO/C(=C/C(=O)C(Cl)(Cl)Cl)CC/C(=C\\C(=O)C(Cl)(Cl)Cl)OC"
  Category: "inactive"
- Compound: "CC(=O)NNc1nc(C)c(C(/C=C/c2ccc([N+](=O)[O-])cc2)=N/NC(N)=O)s1"
  Category: "inactive"

Exercise: Returns: the outcome recorded for COC1C(=O)CCC2(CO2)C1(O)C1(C)OC1CC=C(C)C (configuration not stated) in this assay.
Solution: inactive

Exercise: Returns: the outcome recorded for O=Cc1ccc(-c2ccc(-c3ccc(C=O)s3)o2)s1 in this assay.
Solution: inactive

Exercise: Returns: the outcome recorded for CN(C)CC1CC/C(=C\c2ccc(Cl)cc2)C1=O (configuration not stated) in this assay.
Solution: inactive

Exercise: Returns: the outcome recorded for CN1N=C(N)c2cn(C3OC(COP(=O)(O)O)C(O)C3O)c3ncnc1c23 (configuration not stated) in this assay.
Solution: inactive

Exercise: Returns: the outcome recorded for CC1(C)N=C(/C=N/O)C(C)(C)N1O in this assay.
Solution: inactive

Exercise: Returns: the outcome recorded for CCOC(=O)NC(NC1=NCCS1)(C(=O)OCC)C(F)(F)F (configuration not stated) in this assay.
Solution: inactive

---

# Tested on: Malme-3M
# Experimental Protocol: NCI tumour cell line growth inhibition, 48 h
The source made the active and inactive calls. Cut-off read from the data, not from the text of the source: active = GI50 up to about 1.1 µM and inactive = higher.
API: response.call in active, inactive

- Compound: "O=c1[nH]c(S)nc2c1sc(=S)n2-c1ccccc1"
  Category: "inactive"

Exercise: Returns: the outcome recorded for CC1=CC2CC(C)C1(C)CCc1ccoc12 (stereo not given) in this assay.
Solution: inactive

Exercise: Returns: the outcome recorded for COc1ccc(/C(Cl)=C(\C=O)c2ccc(Cl)cc2)cc1 in this assay.
Solution: inactive

Exercise: Returns: the outcome recorded for COC1=C(OC)C(=O)C(Cc2c(Cl)nc3sccn23)=C(C)C1=O in this assay.
Solution: inactive

Exercise: Returns: the outcome recorded for CC(=O)C1(Cc2cccc3ccccc23)S(=O)(=O)OCCOS1(=O)=O in this assay.
Solution: inactive

Exercise: Returns: the outcome recorded for CO/N=C1/C(n2[nH]c(=O)n(-c3ccccc3)c2=O)C2C=CC1n1c(=O)n(-c3ccccc3)c(=O)n12 (stereo not given) in this assay.
Solution: inactive

Exercise: Returns: the outcome recorded for COc1c(F)c(F)c(C(=O)/C=C2\Nc3ccccc3NC2=O)c(F)c1F in this assay.
Solution: inactive

Exercise: Returns: the outcome recorded for CC(/C=C/NNC1=NN=C(c2ccccc2)C(c2ccccc2)N1)Sc1ccccc1N (stereo not given) in this assay.
Solution: inactive
